Consider the following compounds and their measured EC50 readings.
- Test system: CEM cells HIV-1 protection, formazan growth assay
- assay-remarks: NCI AIDS Antiviral Assay

Q) What value of measured EC50 is listed for `O=c1[nH]c2ccccc2nc1CBr` ?
A) > 200 µM

Q) What value of measured EC50 is listed for `Clc1c2ccccc2[se][n+]1Cc1ccccc1` ?
A) > 15.1 µM

Q) What value of measured EC50 is listed for CN(C(=O)C12C3C4C1(C(=O)O)C1C2C3(C(=O)O)C41C(=O)N(C)C(C)(C)C)C(C)(C)C (centres undefined) ?
A) > 17.4 µM

Q) What value of measured EC50 is listed for `CCCCCCCCCCCCOC(=N)N1CCOCC1` ?
A) > 91.2 µM
